Test system: HDACs
Experiment: In vitro inhibition of HDACs (HDAC Inhibitor Drug Screening Kit, Biovision K340-100)
Type: biochemical
Settings: 200 μM

[
  {
    "chemical-smiles": "COc1cc2ncnc(Nc3ccc(C(=O)Nc4cc(-c5ccccc5)ccc4N)cc3)c2cc1OC",
    "Inhibition percentage (%) towards HDACs": 55.2
  },
  {
    "chemical-smiles": "COc1cc2ncnc(NCc3ccc(C(=O)Nc4ccncc4N)cc3)c2cc1OCCCN1CCOCC1",
    "Inhibition percentage (%) towards HDACs": 46.7
  },
  {
    "chemical-smiles": "Nc1ccccc1NC(=O)c1ccc(CNc2ncnc3ccc([N+](=O)[O-])cc23)cc1",
    "Inhibition percentage (%) towards HDACs": 56.1
  },
  {
    "chemical-smiles": "Nc1ccccc1NC(=O)c1ccc(Nc2ncnc3ccc([N+](=O)[O-])cc23)cc1",
    "Inhibition percentage (%) towards HDACs": 11.1
  }
]
